// data source = the supplement of paper PMC10567573

B1: EIF5 (parent)
chain: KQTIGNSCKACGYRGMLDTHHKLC

variants of: B1; assay: protein stability index of a GFP-peptide fusion (GPS, HEK-293T) (PSI 1-6); higher = more stable; details: c terminus: a fixed tail appended;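 also: lentivirally expressed fusions sorted by FACS into six bins by GFP to DsRed ratio, PSI derived from sequencing read proportions per bin multiplied by bin number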
# label = TRUE if protein stability index >= 2 else FALSE

Req: Decide: is the reported value of protein stability index for KQTIGNSCKACGYRGRLDTHHKLC [M16R] equal to or greater than 2?
Resp: TRUE

Req: Reported protein stability index at or above 2? KQTIGNSCKACPYRGMLDTHHKLC [G12P]
Resp: FALSE

Req: Please check the record KQLIGNSCKACGYRGMLDTHHKLC [T3L] and state if its protein stability index is at or above 2.
Resp: TRUE

Req: Could you please find out whether KQTIGNSCKACGYWGMLDTHHKLC [R14W] has protein stability index that meets 2 or exceeds it?
Resp: TRUE

Req: Exam item: decide whether the reported protein stability index for KQTIGNSCKACGYRSMLDTHHKLC [G15S] is at least 2.
Resp: TRUE

Req: Is reported protein stability index greater than or equal to 2 here: KQTIGNSCKACGYRGMLDTHHKLD [C24D]
Resp: TRUE

Req: Decide: is the reported value of protein stability index for KQTIGNSCKACGYCGMLDTHHKLC [R14C] equal to or greater than 2?
Resp: TRUE

Req: Test whether the variant KQTIGNSMKACGYRGMLDTHHKLC [C8M] records protein stability index of 2 or higher.
Resp: FALSE

Req: For this variant, is measured protein stability index 2 or higher? KQTIGNSCKACGYRLMLDTHHKLC [G15L]
Resp: TRUE

Req: Is it the case that KQTIWNSCKACGYRGMLDTHHKLC [G5W] has protein stability index reaching or exceeding 2?
Resp: TRUE

Req: Determine whether measured protein stability index meets or exceeds 2 for KQTIGNSCEACGYRGMLDTHHKLC [K9E]
Resp: TRUE

Req: # check: protein stability index of KQTIGNSCKACGYRGMLDWHHKLC [T19W] is greater than or equal to 2
Resp: FALSE

Req: Hello, I need to know if KQTIGNSHKACGYRGMLDTHHKLC [C8H] has measured protein stability index not below 2. Thanks!
Resp: FALSE

Req: Could you verify whether the entry KQTIGNSRKACGYRGMLDTHHKLC [C8R] shows protein stability index of no less than 2?
Resp: FALSE

Req: Quick check, protein stability index >= 2? KQTIGNSCKACGYRGMLDTHHKVC [L23V]
Resp: TRUE

Req: Does protein stability index meet or surpass 2 for KQTIGNSCKACGYRGMLDTHYKLC [H21Y] ?
Resp: TRUE

Req: Is protein stability index for KQTIGNSCKACGYRGMLDTLHKLC [H20L] at or above 2?
Resp: TRUE

Req: Would you say KQTIGNSCKACGYVGMLDTHHKLC [R14V] shows protein stability index at minimum 2?
Resp: TRUE

Req: Threshold query (protein stability index >= 2) on KQTIGCSCKACGYRGMLDTHHKLC [N6C]
Resp: TRUE

Req: Would you say KQTIGNSCKACGYRGMRDTHHKLC [L17R] shows protein stability index at minimum 2?
Resp: TRUE

Req: Kindly determine if protein stability index recorded for KQTKGNSCKACGYRGMLDTHHKLC [I4K] is above or exactly 2.
Resp: TRUE
